- Test system: MDA-MB-468 breast
- test name: NCI-60 one-dose screen, 48 h (100 = growth as untreated, 0 = no growth, -100 = all killed)
- assay setup: 10 µM unless noted
About 83,000 compounds went through this panel and 20% of them were active in at least one assay; those are over-represented in the sample as a whole.
The label depends only on growth: class 1 if it is at least 50%, class 0 if it is smaller.

Exercise: # check: growth of `COc1cc(Nc2ncc(F)c(Nc3ccc4c(n3)NC(=O)C(C)(C)O4)n2)cc(OC)c1OC` is greater than or equal to 50%
Key: class 0

Exercise: # check: growth of `c1cncc(-c2cn3nc(-c4c[nH]c5ccccc45)sc3n2)c1` is greater than or equal to 50%
Key: class 0

Exercise: # check: growth of `CC1(C)CC[C@]2(C(=O)N3CCOCC3)CC[C@]3(C)C(=CC[C@@H]4[C@@]5(C)CC[C@H](OC(=O)c6cccnc6)C(C)(C)[C@@H]5CC[C@]43C)[C@@H]2C1` is greater than or equal to 50%
Key: class 0

Exercise: # check: growth of `CCOC(=O)Nc1cc2c(c(N)n1)N=C(c1ccccc1)CO2` is greater than or equal to 50%
Key: class 0

Exercise: # check: growth of `O=C(CCCCl)NNc1nccc(Nc2ccc(S(=O)(=O)Nc3ccncc3)cc2)n1` is greater than or equal to 50%
Key: class 1

Exercise: # check: growth of `N#Cc1ccc(N2Cc3cc(Cl)ccc3OC3=C2C(=O)N(Cc2ccccc2)C3=O)cc1` is greater than or equal to 50%
Key: class 0

Exercise: # check: growth of `C[C@@H]1C(=O)N(C[C@H](Cc2ccccc2)NC(=O)OCc2ccccc2)[C@]1(Cc1ccccc1)C(=O)OC(C)(C)C` is greater than or equal to 50%
Key: class 0

Exercise: # check: growth of `COc1cc(-c2c3sc(=O)[nH]c3nc3c2c(=O)[nH]n3C(C)C)cc2c1OCO2` is greater than or equal to 50%
Key: class 1

Exercise: # check: growth of CC(O)c1ncc(/C=C2\SC(=S)N(Cc3ccccc3)C2=O)s1 (stereo not drawn) is greater than or equal to 50%
Key: class 1

Exercise: # check: growth of `Cc1nc(/N=C(\N)NC(=O)Nc2ccccc2Cl)sc1C` is greater than or equal to 50%
Key: class 0

Exercise: # check: growth of CCc1ccc(CNCC(O)c2ccccc2)cc1 (stereo not drawn) is greater than or equal to 50%
Key: class 0

Exercise: # check: growth of `O=c1ccc2ccccc2o1` is greater than or equal to 50%
Key: class 1

Exercise: # check: growth of COc1cc(OC)c(C2SCC(=O)N2Nc2ncnc3ccccc23)cc1OC (stereo not drawn) is greater than or equal to 50%
Key: class 1

Exercise: # check: growth of `CN1C(=O)N(C)[C@H]2NC(NN)=N[C@H]21` is greater than or equal to 50%
Key: class 1

Exercise: # check: growth of `NC(=O)c1cc(I)ccc1NC(=O)/C=C/c1ccccc1` is greater than or equal to 50%
Key: class 1

Exercise: # check: growth of `COc1cc2cc(Oc3ccc(NC(=O)Nc4ccc(Cl)c(Cl)c4)cc3)c(C)nc2cc1OC` is greater than or equal to 50%
Key: class 0

Exercise: # check: growth of `Cc1cccc(Cc2cnc(NC(=O)/C=C/c3ccco3)s2)c1` is greater than or equal to 50%
Key: class 0

Exercise: # check: growth of COc1cc2c(c(OC)c1)C1c3ccccc3NC(=O)N1CC2 (stereo not drawn) is greater than or equal to 50%
Key: class 0

Exercise: # check: growth of `Fc1cc(F)cc(NNC(=S)c2ccccc2)c1` is greater than or equal to 50%
Key: class 0

Exercise: # check: growth of `COc1ccc(CSc2nc3cc(OC)c(OC)cc3c(=O)n2-c2ccc(OC)cc2OC)cc1` is greater than or equal to 50%
Key: class 1

Exercise: # check: growth of `CCc1ccc(-c2ccc(Nc3ccccc3)nn2)cc1S(N)(=O)=O` is greater than or equal to 50%
Key: class 0

Exercise: # check: growth of `O=c1cc(NC2CCN(CCCc3ccccc3)CC2)c2cc(Cl)ccc2o1` is greater than or equal to 50%
Key: class 0

Exercise: # check: growth of C=C(C)[C@@H]1CC[C@]2(CO)CC[C@]3(C)[C@H](CC[C@@H]4[C@@]5(C)CCC(NCCc6ccc(O)cc6)C(C)(C)[C@@H]5CC[C@]43C)[C@@H]12 (stereo partly drawn) is greater than or equal to 50%
Key: class 0

Exercise: # check: growth of COc1cc2c(c(OC)c1OC)C(=O)CC(c1cccc(C(=O)Nc3ccccc3Br)c1)O2 (stereo not drawn) is greater than or equal to 50%
Key: class 1

Exercise: # check: growth of `Cc1ccc(NC(=O)Nc2nc3ccc([N+](=O)[O-])cc3s2)cc1` is greater than or equal to 50%
Key: class 0

Exercise: # check: growth of `CC(=O)C(C(C)=O)C(c1ccccc1)C(C(C)=O)C(C)=O` is greater than or equal to 50%
Key: class 1

Exercise: # check: growth of `CCCCC/C=N/Nc1nc(C)cc(=O)[nH]1` is greater than or equal to 50%
Key: class 1

* * *

- Tested on: MDA-MB-468 breast
- test name: NCI-60 one-dose screen, 48 h (100 = growth as untreated, 0 = no growth, -100 = all killed)
- assay setup: 10 µM unless noted
Compounds without any hit were thinned out: in the full panel of roughly 83,000, 20% have a hit.
What growth was measured for each of the following?
Give the value, in units of %, as a plain number.

Exercise: Quick check: growth on MDA-MB-468 breast, item CC(=O)OC1CC2CCC1(C)C2(C)C (stereo not given) ?
Key: 103

Exercise: Quick check: growth on MDA-MB-468 breast, item `C/C(=N\NC(N)=O)c1c(O)sc(=O)[nH]c1=O` ?
Key: 97.4

Exercise: Quick check: growth on MDA-MB-468 breast, item `COc1cc(C(=O)c2cc(C(C)=O)c3ccc(C)cn23)cc(OC)c1OC` ?
Key: -2.89

Exercise: Quick check: growth on MDA-MB-468 breast, item `O=C(O)c1ccc(-n2cc(CNc3cc(F)c(F)c(F)c3)c(-c3cccc(F)c3)n2)cc1` ?
Key: 95.4

Exercise: Quick check: growth on MDA-MB-468 breast, item `O=C(COc1ccc(-c2nc3ccccc3[nH]2)cc1)N=Nc1c(O)[nH]c2ccccc12` ?
Key: 34.5

* * *

- Test system: NCI/ADR-RES ovarian
- test name: NCI-60 one-dose screen, 48 h
- assay setup: 10 µM
The panel holds about 83,000 compounds, 20% with a hit somewhere; the sample as a whole holds those more often. Activity calls are given as the source filed them. The calls were made as follows: active = growth percent below 10; inactive = the rest.
Respond only with the outcome that fits, drawn from 1.0 (active), 0.0 (inactive)

Exercise: I'd appreciate the recorded outcome for `Cc1cc(N=C2NC(=O)S/C2=C\c2ccc(F)cc2)n[nH]1` from this test.
Key: 1.0

Exercise: I'd appreciate the recorded outcome for `Cc1ccc(COc2ccc(NC(=O)Nc3ccc(Cl)c(C(F)(F)F)c3)cc2)cc1` from this test.
Key: 0.0

Exercise: I'd appreciate the recorded outcome for `O=C(Nc1ccc(OCc2ccc(Cl)cc2)cc1)Nc1ccc(Cl)c(C(F)(F)F)c1` from this test.
Key: 1.0

Exercise: I'd appreciate the recorded outcome for `Nc1nnc(-c2c[nH]c3ncc(Br)cc23)c(-c2c[nH]c3ccc(Br)cc23)n1` from this test.
Key: 0.0

Exercise: I'd appreciate the recorded outcome for COc1ccc(C2c3sc4ccc(C)cc4c3Oc3nc[nH]c(=O)c32)cc1 (configuration not stated) from this test.
Key: 0.0

Exercise: I'd appreciate the recorded outcome for `CCn1c(SCC(=O)Nc2ccc(-c3nc4ccccc4[nH]3)cc2)nc2ccccc2c1=O` from this test.
Key: 1.0

Exercise: I'd appreciate the recorded outcome for `Cc1ccc2c(c1)C(=O)/C(=C/c1ccc([N+](=O)[O-])cc1)S2` from this test.
Key: 0.0

Exercise: I'd appreciate the recorded outcome for `COc1ccc2[nH]cc(-c3nc(N)nnc3-c3cn(C)c4ncc(Br)cc34)c2c1` from this test.
Key: 0.0

Exercise: I'd appreciate the recorded outcome for `Fc1ccc(/C=C/c2nc3ccccc3n3c(-c4ccc(Cl)cc4)nnc23)cc1` from this test.
Key: 0.0

Exercise: I'd appreciate the recorded outcome for `O=C(CN1CCN(c2ncnc3c2cnn3-c2ccccc2)CC1)Nc1ccc(Br)cc1` from this test.
Key: 0.0

Exercise: I'd appreciate the recorded outcome for `Cn1cc(/C=C(/SS/C(=C/c2cn(C)c3cccc(C(=O)O)c23)C(=O)O)C(=O)O)c2c(C(=O)O)cccc21` from this test.
Key: 0.0

Exercise: I'd appreciate the recorded outcome for `Cc1cc(N=C2NC(=O)/C(=C/c3cc(C(C)(C)C)c(O)c(C(C)(C)C)c3)S2)n[nH]1` from this test.
Key: 1.0

The measured values listed here are drawn from PubChem BioAssay (NCI).
